Assay name: Aqueous solubility of compound I salts (FIG. 8)
Format: physicochemical
Measurement setup: water
Where a name gives a salt, the structure may show the parent alone.
Measured parameter: solubility

Enquiry: Would you kindly share the measured solubility for CC(C)[C@H](N)C(=O)OCC[C@H](NC(=O)[C@@H]1SCCN1S(=O)(=O)c1ccc(-c2ccccc2)cc1)c1ccc(F)cc1 [Compound III, hydrochloride] ?
Return: < 1000 µg/mL

* * *

Assay name: Solubility in water, FaSSIF and FeSSIF
Type: physicochemical
Measurement setup: FaSSIF, pH 6.5 (fasted state); read-out: Solubility in FaSSIF pH 6.5
Measured parameter: solubility (µg/mL)
Lab book: enter the figure in µg/mL, no units written.

Enquiry: Would you kindly share the measured solubility for `O=C(N[C@@H](CCO)c1ccc(F)cc1)[C@@H]1SCCN1S(=O)(=O)c1ccc(-c2ccccc2)cc1` ?
Return: 0.4

Enquiry: Would you kindly share the measured solubility for `CC(C)[C@H](N)C(=O)OCC[C@H](NC(=O)[C@@H]1SCCN1S(=O)(=O)c1ccc(-c2ccccc2)cc1)c1ccc(F)cc1` ?
Return: 70
